Biological target: human AhR (Homo sapiens)
Construct: INDIGO's Aryl Hydrocarbon Receptor (AhR) Reporter Cells include the luciferase reporter gene functionally linked to an AhR-responsive promoter
Sequence (P35869 11-848): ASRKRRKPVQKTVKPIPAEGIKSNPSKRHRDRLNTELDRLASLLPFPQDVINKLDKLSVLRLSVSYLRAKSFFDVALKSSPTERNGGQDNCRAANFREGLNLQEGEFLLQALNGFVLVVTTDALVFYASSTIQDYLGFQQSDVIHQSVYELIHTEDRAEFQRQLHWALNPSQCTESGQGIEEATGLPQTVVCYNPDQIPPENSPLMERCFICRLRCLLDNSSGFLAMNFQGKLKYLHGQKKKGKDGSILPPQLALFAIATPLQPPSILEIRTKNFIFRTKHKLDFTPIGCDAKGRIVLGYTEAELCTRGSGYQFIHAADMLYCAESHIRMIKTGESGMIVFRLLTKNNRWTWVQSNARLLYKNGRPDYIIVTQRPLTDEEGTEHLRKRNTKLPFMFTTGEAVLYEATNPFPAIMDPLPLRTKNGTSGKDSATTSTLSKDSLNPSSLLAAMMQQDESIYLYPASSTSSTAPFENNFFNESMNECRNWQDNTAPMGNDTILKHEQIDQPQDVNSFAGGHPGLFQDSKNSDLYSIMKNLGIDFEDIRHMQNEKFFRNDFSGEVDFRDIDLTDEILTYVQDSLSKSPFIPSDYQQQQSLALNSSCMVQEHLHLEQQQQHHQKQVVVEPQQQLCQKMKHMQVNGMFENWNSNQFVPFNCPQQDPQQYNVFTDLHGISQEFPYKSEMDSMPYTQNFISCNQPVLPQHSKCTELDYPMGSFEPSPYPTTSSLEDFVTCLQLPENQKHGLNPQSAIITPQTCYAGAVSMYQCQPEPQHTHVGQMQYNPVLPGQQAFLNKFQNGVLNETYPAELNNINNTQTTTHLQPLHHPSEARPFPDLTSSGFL
Assay: INDIGO AhR Reporter Assay (luciferase reporter cells, antagonist mode)
Settings: antagonist mode with 50 nM of VAF347 (AhR agonist); 22-24 hours incubation; luciferase RLU
property_name: IC50

Request: Please look up its IC50: Cc1cc(F)ccc1-c1cc(NC(=O)c2cc3ncccc3cc2Cl)n(C)n1 [Compound 57]
Response: 100 to 500 nM

Request: Please look up its IC50: Cn1nc(C(F)(F)F)cc1NC(=O)c1ccc2cc(-c3ccncc3)cnc2c1 [Compound 78]
Response: 100 to 500 nM

Request: Please look up its IC50: CCN(CC)S(=O)(=O)c1cc(NC(=O)c2cc3cc(-c4ccc(F)cn4)cnc3s2)ccc1Cl [Compound 151]
Response: > 1000 nM

Request: Please look up its IC50: CCN(CC)S(=O)(=O)c1cc(NC(=O)c2cc3ncccc3cc2Cl)ccc1F [Compound 33]
Response: 500 to 1000 nM

Request: Please look up its IC50: Cc1ccccc1-c1cc(NC(=O)c2ccc3cc(-c4ccc(F)cc4F)cnc3c2)n(C)n1 [Compound 96]
Response: < 100 nM

Request: Please look up its IC50: Cn1nc(C(F)(F)F)cc1NC(=O)c1ccc2cc(-c3ccsc3)cnc2c1 [Compound 67]
Response: < 100 nM

Request: Please look up its IC50: Cn1nccc1NC(=O)c1ccc2c(Oc3ccccc3)ccnc2c1 [Compound 76]
Response: > 1000 nM

Request: Please look up its IC50: CCN(CC)S(=O)(=O)c1cc(NC(=O)c2cc3cc(-c4ccc(F)cc4)cnc3s2)ccc1Cl [Compound 141]
Response: 100 to 500 nM

Request: Please look up its IC50: Cn1nc(C(F)(F)F)cc1NC(=O)c1ccc2cc(-c3ccccn3)cnc2c1 [Compound 100]
Response: < 100 nM

Request: Please look up its IC50: Cn1nc(C(F)(F)F)cc1NC(=O)c1cc2ncccc2cc1Cl [Compound 27]
Response: < 100 nM

Request: Please look up its IC50: Cc1cc(Cl)ccc1-c1cc(NC(=O)c2cc3ncccc3cc2Cl)n(C)n1 [Compound 58]
Response: 100 to 500 nM

Request: Please look up its IC50: Cc1ccccc1-c1cc(NC(=O)c2ccc3cc(-c4ccc(F)cc4)cnc3c2)n(C)n1 [Compound 95]
Response: < 100 nM

Request: Please look up its IC50: CCN(CC)S(=O)(=O)c1cc(NC(=O)c2cc3ncccc3cc2Cl)ccc1Cl [Compound 34]
Response: 100 to 500 nM

Request: Please look up its IC50: Cc1ccccc1-c1cnc2cc(C(=O)Nc3ccc(C(F)(F)F)nc3)ccc2c1 [Compound 81]
Response: 100 to 500 nM

Request: Please look up its IC50: O=C(Nc1ccc(C(F)(F)F)nc1)c1ccc2c(N3CCOCC3)ccnc2c1 [Compound 80]
Response: > 1000 nM

Request: Please look up its IC50: CN(C)S(=O)(=O)c1cc(NC(=O)c2cc3cc(-c4ccc(F)cc4)cnc3s2)ccc1Cl [Compound 148]
Response: 100 to 500 nM

Request: Please look up its IC50: Cn1nc(-c2ccccc2C(F)(F)F)cc1NC(=O)c1cc2ncccc2cc1Cl [Compound 44]
Response: 100 to 500 nM
